Record form. Attribute: Emax. Fill in for each entry.
biological target: human GLP-1R (Homo sapiens, UniProt P43220, G168S); assay: CHO GLP-1R Clone H6—Assay 1: HTRF cAMP cell-based functional agonist assay (high GLP-1R density); conditions: read-out: Assay 1 Emax (%), CHO GLP-1R Clone H6; relative to saturating concentration of full agonist GLP-1 (1 μM); arithmetic mean
Sequence (P43220 24-463 G168S limits assumed): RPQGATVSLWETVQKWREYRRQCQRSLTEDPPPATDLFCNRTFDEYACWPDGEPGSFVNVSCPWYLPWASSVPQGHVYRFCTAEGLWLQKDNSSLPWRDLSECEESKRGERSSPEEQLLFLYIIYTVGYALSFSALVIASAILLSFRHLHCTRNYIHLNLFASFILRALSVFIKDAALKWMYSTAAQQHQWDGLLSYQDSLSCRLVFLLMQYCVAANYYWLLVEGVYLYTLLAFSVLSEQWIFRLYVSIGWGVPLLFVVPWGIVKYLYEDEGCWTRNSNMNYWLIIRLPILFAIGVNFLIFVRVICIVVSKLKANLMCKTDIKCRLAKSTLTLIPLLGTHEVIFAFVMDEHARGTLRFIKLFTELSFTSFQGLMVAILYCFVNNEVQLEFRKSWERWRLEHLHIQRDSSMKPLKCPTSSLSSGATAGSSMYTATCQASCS
Answers are plain numbers, in %.

COMPOUND: CCn1nncc1Cn1c(CN2CCC(c3cccc(OCc4ccc(C#N)cc4F)n3)CC2)nc2ccc(C(=O)O)cc21 [Example 10A-69]
EXPERIMENTAL SYSTEM: human GLP-1R (Homo sapiens, UniProt P43220, G168S)
EXPERIMENTAL RESULT: 84

Provide Emax for all items below, preserving their order.
1. COCCn1c(CN2CCC(c3ccc(F)c(OCc4ccc(Cl)cc4F)n3)CC2)nc2ccc(C(=O)O)cc21
2. Cn1cnnc1CCn1c(CN2CCC(c3cccc(OCc4ccc(Cl)cc4F)n3)CC2)nc2ccc(C(=O)O)cc21 [Example 11A-53]
3. Cn1c(CN2CCC(c3cccc(OCc4ccc(C(F)(F)F)cc4)n3)CC2)nc2ccc(C(=O)O)cc21

(A)
1. 79
2. 71
3. 68
